System: AP activity
assay-remarks: Wieslab assay (AP activity in vitro)
Assay type: biochemical
measurement-label: IC50 (nM)
Provide the reading as a plain figure in nM.

Input: Data request, read-out IC50, for CC(=O)c1nn(CC(=O)N2C[C@H](F)C[C@H]2C(=O)Nc2cccc(Br)n2)c2ccc(-c3cnc(C)nc3)cc12
Output: 26
